# System: Escherichia coli
# Method notes: Estimated rate of [3H]DHS uptake in Escherichia coli K12 (ATCC 25868)
# Assay type: functional
# Set-up: unit not given here
Parameter: Uptake at C50
Write no unit; give the number alone.

Q. What measured Uptake at C50 goes with NC[C@H]1O[C@H](O[C@H]2[C@H](O[C@@H]3O[C@H](CO)[C@@H](O)[C@H]3O)[C@@H](O)[C@H](N)C[C@@H]2N)[C@H](N)[C@@H](O)[C@@H]1O ?
A. 2.6

Q. What measured Uptake at C50 goes with NC[C@@H]1O[C@@H](O[C@H]2[C@H](O)[C@@H](O[C@H]3O[C@H](CO)[C@@H](O)[C@H](N)[C@H]3O)[C@H](N)C[C@@H]2N)[C@@H](O)[C@H](O)[C@H]1O ?
A. 3.5

Q. What measured Uptake at C50 goes with NCC1OC(OC2C(N)CC(NC(=O)C3(O)CNC3)C(OC3OC(CO)C(O)C(N)C3O)C2O)C(N)CC1O (stereo not given) ?
A. 4.4

Q. What measured Uptake at C50 goes with NC[C@H]1O[C@H](O[C@H]2[C@H](O)[C@@H](O[C@H]3O[C@H](CO)[C@@H](O)[C@H](N)[C@H]3O)[C@H](N)C[C@@H]2N)[C@H](N)[C@@H](O)[C@@H]1O ?
A. 6.8

Q. What measured Uptake at C50 goes with CN[C@@H]1[C@H](O[C@H]2[C@H](O[C@H]3[C@H](O)[C@@H](O)[C@H](N=C(N)N)[C@@H](O)[C@@H]3N=C(N)N)O[C@@H](C)[C@]2(O)C=O)O[C@@H](CO)[C@H](O)[C@H]1O ?
A. 5.8

Reference source: ChEMBL document CHEMBL1123673
